System: MCC-26
Experiment: qHTS assay to identify novel small-molecules to repurpose for Merkel cell carcinoma treatment (AID 1296009); further: nearly all actives have a fitted effect of over 60% in size
Settings: MCC and control cell lines, CellTiter-Glo viability, 72 h; series mostly up to 46 µM
Inconclusive results are not listed. The source made the active and inactive calls. The call rests on the fitted dose curve; in most records, active means well fitted inhibition curve with a large enough effect; inconclusive means small, poorly fitted or top-dose-only effect; inactive means flat fitted curve, though single readings scatter.
Assign a class; possible classes are class 1 = active, class 0 = inactive

Nc1cccc(-c2cc3c(Oc4cccc(O)c4)ncnc3[nH]2)c1: class 1
CCCCOc1c(C(=O)c2c(F)cc(C)cc2F)cnc2n[nH]cc12: class 0
O=C(O)c1ccc2cc(-c3ccc(O)c(C45CC6CC(CC(C6)C4)C5)c3)ccc2c1: class 1

For `CCCCN1CCC(CNC(=O)c2c3n(c4ccccc24)CCCO3)CC1` , what call appears in the results of this test?
class 0

For `CC(C)c1ccc(Cn2ccc3c4c(N)nc(NC5CC5)nc4ccc32)cc1` , what call appears in the results of this test?
class 1

====

Experiment: Quantitative High-Throughput drug screen in 47 multiple myeloma cell lines against the NCATS MIPE library collection: XG6_PLB cell viability assay (AID 1919865); further: nearly all actives have a fitted effect of over 40% in size
Details: XG6 myeloma viability, CellTiter-Glo ATP luminescence, 48 h; series mostly up to 45.8 µM
Records with an inconclusive call do not appear. The source made the active and inactive calls. Calls come from the whole dose curve; as a rule, active = well fitted cell-killing curve with a large enough effect; inconclusive = small, poorly fitted or top-dose-only effect, or effect the other way; inactive = no such curve, though single readings can be large or run the other way.
Assign a class; possible classes are 1 (active), -1 (inactive)

Worked set:
Cc1ccc2nc(NC(=O)CSc3nc4c(c(=O)n3-c3ccccc3)SCC4)sc2c1: 1
O=C(O)c1ccc2c(c1)nc(Nc1cccc(Cl)c1)c1ccncc12: 1
COC(=O)C[C@](O)(CCCC(C)(C)O)C(=O)O[C@@H]1C(OC)=C[C@]23CCCN2CCc2cc4c(cc2[C@H]13)OCO4: -1
O=C(Nc1nc2cccc(-c3ccc(CN4CCS(=O)(=O)CC4)cc3)n2n1)C1CC1: 1
CC(C)c1cc(C(=O)N2Cc3ccc(CN4CCN(C)CC4)cc3C2)c(O)cc1O: 1
C[C@@]12O[C@@H](C[C@]1(O)CO)n1c3ccccc3c3c4c(c5c6ccccc6n2c5c31)CNC4=O: 1

For CC[C@@H]1C(=O)N(C)c2cnc(Nc3ccc(C(=O)NC4CCC(N5CCN(CC6CC6)CC5)CC4)cc3OC)nc2N1C(C)C (some centres undefined) , what call appears in the results of this test?
1

For `Nc1cccc(-c2cc3c(Oc4cccc(O)c4)ncnc3[nH]2)c1` , what call appears in the results of this test?
1

For `NCC(=O)Nc1ccc(-n2nc(C(F)(F)F)cc2-c2ccc3c(ccc4ccccc43)c2)cc1` , what call appears in the results of this test?
1

====

Assay: qHTS of pediatric cancer cell lines to identify multiple opportunities for drug repurposing: Primary screen for Rh41 cells (AID 1347108); further: nearly all actives have a fitted effect of over 70% in size
Conditions: Rh41 rhabdomyosarcoma viability, CellTiter-Glo luminescence, 48 h; series mostly up to 46 µM
Inconclusive results are not listed. Activity calls are given as the source filed them. Calls come from the whole dose curve; as a rule, active = well fitted cell-killing curve with a large enough effect; inconclusive = small, poorly fitted or top-dose-only effect; inactive = no such curve, though single readings can be large or run the other way.
Assign a class; possible classes are active, inactive

Worked set:
O=C(Nc1cn[nH]c1-c1nc2ccc(CN3CCOCC3)cc2[nH]1)NC1CC1: active
C=CC(=O)Nc1cccc(Oc2nc(Nc3ccc(N4CCN(C)CC4)cc3)ncc2Cl)c1: active
CC(C)[C@H](C(=O)Nc1ccc(C(=O)NO)cc1)c1ccccc1: active
COc1ccc(CC2SC(=O)NC2=O)cc1C(=O)NCc1ccc(C(F)(F)F)cc1 (stereo not drawn): inactive
O=c1[nH]nc(Sc2ncc([N+](=O)[O-])s2)n1-c1ccc2c(c1)OCCO2: active

For `Cc1ccc(C(=O)Nc2ccc(CN3CCN(C)CC3)c(C(F)(F)F)c2)cc1C#Cc1cnc2cccnn12` , what call appears in the results of this test?
active

For `COC(=O)c1ccc2c(C(=Nc3ccc(N(C)C(=O)CN4CCN(C)CC4)cc3)c3ccccc3)c(O)[nH]c2c1` , what call appears in the results of this test?
active

For `COc1cc(Nc2ncc(F)c(Nc3ccc4c(n3)N(COP(=O)(O)O)C(=O)C(C)(C)O4)n2)cc(OC)c1OC` , what call appears in the results of this test?
active

For `COc1c(OCCCN2CCOCC2)ccc2c3n(c(=NC(=O)c4cnc(N)nc4)nc12)CCN3` , what call appears in the results of this test?
active

For `Nc1ccn([C@@H]2CS[C@H](CO)O2)c(=O)n1` , what call appears in the results of this test?
inactive

For CCOC(=O)C1=C(C)NC2=C(C(=O)CC(C)(C)C2)C1c1ccc(-c2ccccc2)cc1 (stereo not drawn) , what call appears in the results of this test?
active

For `CN(C)CCCN=c1c2ccccc2n(C)c2[nH]c(=O)n(C)c(=O)c12` , what call appears in the results of this test?
active

For `Cc1[nH]nc2ccc(-c3cncc(OC[C@@H](N)Cc4ccccc4)c3)cc12` , what call appears in the results of this test?
active

For `Cc1cn(-c2cc(NC(=O)c3ccc(C)c(Nc4nccc(-c5cccnc5)n4)c3)cc(C(F)(F)F)c2)cn1` , what call appears in the results of this test?
inactive

For `Nc1nccc(Oc2ccc(NC(=O)c3c[nH]cc(-c4ccc(F)cc4)c3=O)cc2F)c1Cl` , what call appears in the results of this test?
active

For `Cn1c(CNc2ccc(C(=N)N)cc2)nc2cc(C(=O)N(CCC(=O)O)c3ccccn3)ccc21` , what call appears in the results of this test?
inactive

For `COc1cccc(Nc2c(C(N)=O)cnc3c(C)cc(S(=O)(=O)c4cccc(C(=O)N(C)C)c4)cc23)c1` , what call appears in the results of this test?
inactive
